Reference source: patent US20030059769

Entries and their Kd
experimental target: T1, L-selectin on PBMC / lymphocytes (Homo sapiens, UniProt P14151 P14151:39-372)
T1 sequence: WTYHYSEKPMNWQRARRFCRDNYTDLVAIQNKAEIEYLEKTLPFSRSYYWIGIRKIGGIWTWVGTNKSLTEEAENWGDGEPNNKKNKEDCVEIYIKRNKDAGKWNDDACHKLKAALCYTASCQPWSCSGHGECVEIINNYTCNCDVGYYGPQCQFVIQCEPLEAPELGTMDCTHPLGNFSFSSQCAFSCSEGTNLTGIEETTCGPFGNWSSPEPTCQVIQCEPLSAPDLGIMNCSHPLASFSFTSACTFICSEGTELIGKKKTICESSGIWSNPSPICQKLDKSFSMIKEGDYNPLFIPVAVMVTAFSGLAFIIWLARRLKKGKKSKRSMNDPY
experiment: flow; competition with FITC-LD201T1
Protocol: Binding of evolved ligands to L-selectin presented in the context of a cell surface was tested by flow cytometry experiments with human lymphocytes. Briefly, peripheral blood mononuclear cells (PBMC) were purified on histoplaque by standard techniques. […] Fluorescent staining of cells was quantified on a FACSCaliber fluorescent activated cell sorter (Becton Dickinson, San Jose, Calif.). The affinity of the 2′-F competitor was calculated from the flurorescence inhibition curves. […]
Quick note: give the figure in nM, leave out the unit.

Below: 3 binders and their reported Kd.
binder: LF1513 (ssRNA, 2'-F C and U) RNA: GGGAGGACGAUGCGGGCUCUUCAGCAACGUGUUAUCAAGUUAGCCCAGACGACUCGCCCGA
unit label: nM
value observed: 4

binder: LF1514 (ssRNA, 2'-F C and U) RNA: GGGAGGACGAUGCGGUACCUCAAAUUGCGUGUUUUCAAGCAGUAUCAGACGACUCGCCCGA
unit label: nM
value observed: 0.8

binder: LF1613 (ssRNA, 2'-F C and U) RNA: GGGAGGACGAUGCGGUGCUAUUCUUAAGCGGCGUGUUUUUCAAGCCAAUAUCAUCAGACGACUCGCCCGA
unit label: nM
value observed: 0.2

Prompt line: State the recorded Kd for this entry: LF1618 (ssRNA, 2'-F C and U [all C and U 2'-F; W in the 3' fixed region (cagacgacucgcccga) = A]) RNA: GGGAGGACGAUGCGGUUAGCCUACACUCUAGGUUCAGUUUUCGAAUCUUCCACCGCAGACGACUCGCCCGA
Response line: 25
